TARGET_ENTITY: Alpha-1D adrenergic receptor (Rattus norvegicus, UniProt P23944)
Sequence (P23944 whole entry): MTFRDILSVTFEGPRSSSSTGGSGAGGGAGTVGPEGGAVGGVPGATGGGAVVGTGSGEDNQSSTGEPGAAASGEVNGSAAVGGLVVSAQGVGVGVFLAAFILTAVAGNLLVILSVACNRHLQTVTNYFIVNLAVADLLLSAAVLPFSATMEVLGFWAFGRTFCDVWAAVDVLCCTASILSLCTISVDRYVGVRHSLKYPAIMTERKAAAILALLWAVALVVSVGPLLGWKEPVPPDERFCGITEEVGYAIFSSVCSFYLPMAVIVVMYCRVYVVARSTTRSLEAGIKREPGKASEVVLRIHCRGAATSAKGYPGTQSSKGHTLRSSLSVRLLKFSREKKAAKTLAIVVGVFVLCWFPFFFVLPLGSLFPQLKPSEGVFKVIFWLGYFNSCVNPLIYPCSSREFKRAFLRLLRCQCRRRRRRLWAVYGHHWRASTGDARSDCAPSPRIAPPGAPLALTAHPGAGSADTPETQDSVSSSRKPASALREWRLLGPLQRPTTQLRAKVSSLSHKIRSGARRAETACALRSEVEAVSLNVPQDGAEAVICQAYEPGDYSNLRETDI
Several publications report Ki on Alpha-1D adrenergic receptor (Rattus norvegicus, UniProt P23944); those values are gathered here.
Answer format: numeric, nM implied, no suffix.

Name the reported Ki value associated with the molecule `COc1cccc2c1CC[C@H]1CN(CCn3c(=O)[nH]c4cc([N+](=O)[O-])ccc4c3=O)C[C@@H]21`
1.2

So what's the measured Ki for this one? COc1cccc(OC)c1OCCNCC1COc2ccccc2O1 (stereo not drawn)
6.26

What does the data say about its Ki? Entry: `COc1cccc2c1CC[C@H]1CN(CCn3c(=O)[nH]c4cc(NC(C)=O)ccc4c3=O)C[C@@H]21`
0.41

Need Ki of `COc1cccc2c1CC[C@H]1CN(CCn3c(=O)[nH]c4c(C(C)C)c(OC)sc4c3=O)C[C@@H]21` , thanks.
1.5

Tell me the measured Ki of `COc1cccc2c1CC[C@H]1CN(CCn3c(=O)[nH]c4cccc(C)c4c3=O)C[C@@H]21` , please.
1.13

Which Ki value is on record for `COc1cccc2c1CC[C@H]1CN(CCn3c(=O)[nH]c4nccnc4c3=O)C[C@@H]21` ?
5.49

I am curious: what Ki value has been reported for `CN1CCC(c2cn(-c3ccc(F)cc3)c3ccc(-c4ncn(C)n4)cc23)CC1` ?
15

Tell me the measured Ki of CCS(=O)(=O)Nc1ccc2c(c1)C(c1c[nH]cn1)CCC2 (stereo not drawn) , please.
339

Need Ki, item `COc1cccc2c1CC[C@H]1CN(CCn3c(=O)[nH]c4c(C)c(C)ccc4c3=O)C[C@@H]21`
0.89

So what does the record say about Ki for `COC(=O)c1cc2[nH]c(=O)n(CCN3C[C@@H]4CCc5c(OC)cccc5[C@@H]4C3)c(=O)c2s1` ?
1.38

Would you kindly share the measured Ki for `COc1cccc(OC)c1OCCNC[C@@H]1Oc2ccccc2O[C@H]1c1ccc(C)cc1` ?
6.57

Entry `COc1cc(N)c(C(=O)NCCN2C[C@@H]3CCc4c(OC)cccc4[C@@H]3C2)cc1OC` has what Ki?
32.7

Any idea what Ki was measured for `COc1ccccc1N1CCN(CCn2c(=O)[nH]c3sc(-c4ccccc4)cc3c2=O)CC1` ?
0.361

Given the entry `COc1ccccc1N1CCN(CCn2c(=O)[nH]c3scc(-c4cccc(C)c4)c3c2=O)CC1` , report its measured Ki.
0.17

// query Ki value for entry `COc1cccc2c1CC[C@H]1CN(CCn3c(=O)[nH]c4ccsc4c3=O)C[C@@H]21`
0.92

Which measured Ki value corresponds to `COc1ccc2[nH]c(=O)n(CCN3C[C@@H]4CCc5c(OC)cccc5[C@@H]4C3)c(=O)c2c1` ?
1.13
